Values were extracted from patent US20140348861A1.

- Tested on: SJL/J mice exhibiting MBP (85-109) induced relapsing remitting form of EAE
- assay notes: Therapeutic activity in MBP (85-109) induced relapsing remitting EAE, treatment from day 11
- Assay type: in vivo
- measurement conditions: synthetic peptides; SJL/J mice, RR EAE; 0.1 mg daily for two weeks from day 11 post-immunization
Non-standard residues stand in square brackets, D forms with d. No end group written: not given here. β3hA = C[C@H](N)CC(=O)O
outcome measure: Therapeutic activity = % reduction in cumulative clinical disability score (%)
Numbers only here, please. The scale is %.

Would you please look over these solved cases?
- EKPKVEAYKAAAβ^3Aβ^3Pβ^3Aβ^3 [Analog S4]: 35.83
- EKPKVEAYβ^3Kβ^3Aβ^3Aβ^3Aβ^3Aβ^3Pβ^3Aβ^3 [Analog S8]: 55.19
- EKPKVEAYKAAβ^3Aβ^3Aβ^3Pβ^3Aβ^3 [Analog S5]: 42.35
- EKPKVEAYKAAAAPA [Analog J5, reference compound]: 35.29
- EKPKVEAYKAAAAPβ^3Aβ^3 [Analog S2]: 33.48
- KVEAYKAAAA (Peptide analog) [Analog J5a, reference compound]: 28.34
- KVEAYKAAAβAβ [Analog S56]: 30.91
- EKPKVEAYKAAAAPAβ^3 [Analog S1]: 34.33

Ask: What measured Therapeutic activity = % reduction in cumulative clinical disability score goes with EKPKVEβ^3Aβ^3Yβ^3Kβ^3Aβ^3Aβ^3Aβ^3Aβ^3Pβ^3Aβ^3 [Analog S10] ?
Result: 51.23

Ask: // query: EKPKVEAYKAAAAPAβ [Analog S41]
Result: 33.37

Ask: // query: KVEAYKAAAAβ^3 (KVEAYKAAA[β3hA]) [Analog S17]
Result: 29.3

* * *

- System: SJL/J mice exhibiting MBP (85-109) induced relapsing remitting form of EAE
- assay notes: Therapeutic activity in MBP (85-109) induced relapsing remitting EAE, treatment from day 11
- Format: in vivo
- measurement conditions: synthetic peptides; SJL/J mice, RR EAE; 0.1 mg daily for two weeks from day 11 post-immunization
Non-standard residues stand in square brackets, D forms with d. No end group written: not given here. β3hA = C[C@H](N)CC(=O)O
# maps each entry to its Therapeutic activity = % reduction in cumulative clinical disability score
Numbers only here, please. The scale is %.

Ask: What measured Therapeutic activity = % reduction in cumulative clinical disability score goes with KVEAYKAβ^3Aβ^3Aβ^3Aβ^3 (KVEAYK[β3hA][β3hA][β3hA][β3hA]) [Analog S20] ?
Result: 48.24

Ask: // query: EKPKVEAYKAAAβAβPAβ [Analog S43]
Result: 41.28

Ask: // query: EKPKVEAYβ^3Kβ^3Aβ^3Aβ^3Aβ^3Aβ^3Pβ^3Aβ^3 [Analog S7]
Result: 53.8

Ask: // query: KVEAYKAβAβAβAβ [Analog S58]
Result: 42.35

* * *

- System: SJL/J mice exhibiting MBP (85-109) induced relapsing remitting form of EAE
- assay notes: Therapeutic activity in MBP (85-109) induced relapsing remitting EAE, treatment from day 11
- Type: in vivo
- measurement conditions: synthetic peptides; SJL/J mice, RR EAE; 0.1 mg daily for two weeks from day 11 post-immunization
Starred links: 1 amine or outer side, 2 acyl side, 3 side chain; linkers in the order of their positions; H or OH if unused. Non-standard residues stand in square brackets, D forms with d. No end group written: not given here. Kβ = L-β-lysine, O=C(C[C@H](CCCN[*:3])N[*:1])[*:2]; β3hK = NCCCC[C@H](N)CC(=O)O
outcome measure: Therapeutic activity = % reduction in cumulative clinical disability score (%)
Numbers only here, please. The scale is %.

* EKPKVEAYKAAAAβ^3Pβ^3Aβ^3 [Analog S3] | 36.36
* EKPKVEAYβKβAβAβAβAβPAβ [Analog S47] | 52.3
* EKPKVEAYKβ^3Aβ^3Aβ^3Aβ^3Aβ^3Pβ^3Aβ^3 [Analog S6] | 50.8
* EKPKVEAYKβAβAβAβAβPAβ (EKPKVEAY[Kβ]XXXXPX; not fully specified (residues 10, 11, 12, 13, 15); printed as EKPKVEAYKβAβAβAβAβPAβ) [Analog S46] | 53.26
* KVEAYKAAβAβAβ [Analog S57] | 39.36
* EKPKVEAYKAAβAβAβPAβ [Analog S44] | 47.27
* KVEAYKβ^3Aβ^3Aβ^3Aβ^3Aβ^3 [Analog S21] | 49.3
* KVEAYKβ^3 (KVEAY[β3hK]) [Analog S28] | 23.96

Ask: What measured Therapeutic activity = % reduction in cumulative clinical disability score goes with EKPKVEAβYβKβAβAβAβAβPAβ [Analog S48] ?
Result: 54.2246

Ask: // query: EKPKVEAYKAβAβAβAβPAβ [Analog S45]
Result: 54.87

Ask: // query: EKPKVEAβ^3Yβ^3Kβ^3Aβ^3Aβ^3Aβ^3Aβ^3Pβ^3Aβ^3 [Analog S9]
Result: 55.08

Ask: // query: EKPKVEAYKAAAAβPAβ [Analog S42]
Result: 34.65
